# System: HIV-1 infection of TZM-bl cells
# METHOD SUMMARY: HIV-1 infectivity enhancement assay, β-galactosidase luminescence
# Format: cell-based
# CONDITION CONTEXT: Feb2021 run; infectivity n-fold relative to virus alone
// classify: if (n-fold to virus (Feb2021) < 10) True else False

>  <SUBSTANCE>
KAKAQANM [TM152]

>  <ASSIGNED CLASS>
True

$$$$
>  <SUBSTANCE>
CKIKQIINM [BL1]

>  <ASSIGNED CLASS>
False

$$$$
>  <SUBSTANCE>
QCKIKQIINM [CK5]

>  <ASSIGNED CLASS>
False

$$$$
>  <SUBSTANCE>
QCKIKIQI [CK3]

>  <ASSIGNED CLASS>
True

$$$$
>  <SUBSTANCE>
QCKFKFQFNM [CK8]

>  <ASSIGNED CLASS>
False

$$$$
>  <SUBSTANCE>
RGDKIKIQINMWQ [MG9a]

>  <ASSIGNED CLASS>
False

$$$$
>  <SUBSTANCE>
CKFKFQF [BL4]

>  <ASSIGNED CLASS>
False

$$$$

###

# Tested on: HIV-1 infection of TZM-bl cells
# METHOD SUMMARY: HIV-1 infectivity enhancement assay, β-galactosidase luminescence
# Assay type: cell-based
# CONDITION CONTEXT: log10 of infectivity relative to EF-C; Feb2021 run
MEASURED QUANTITY: Log10 of Rel to EFC (Feb2021)

>  <SUBSTANCE>
KIKQII [msis21]

>  <SUBJECT OF TEST>
HIV-1 infection of TZM-bl cells

>  <MEASURED QUANTITY>
Log10 of Rel to EFC (Feb2021)

>  <RECORDED RESULT>
-2.308

$$$$
>  <SUBSTANCE>
RGDKIKIQINM [MG8a / CN17]

>  <SUBJECT OF TEST>
HIV-1 infection of TZM-bl cells

>  <MEASURED QUANTITY>
Log10 of Rel to EFC (Feb2021)

>  <RECORDED RESULT>
-0.3838

$$$$
>  <SUBSTANCE>
CEIEIQINM [TM144]

>  <SUBJECT OF TEST>
HIV-1 infection of TZM-bl cells

>  <MEASURED QUANTITY>
Log10 of Rel to EFC (Feb2021)

>  <RECORDED RESULT>
-1.186

$$$$
>  <SUBSTANCE>
CEIEIQINMWQ [TM143]

>  <SUBJECT OF TEST>
HIV-1 infection of TZM-bl cells

>  <MEASURED QUANTITY>
Log10 of Rel to EFC (Feb2021)

>  <RECORDED RESULT>
-0.6602

$$$$
>  <SUBSTANCE>
CEIEIQI [AR2/ TM142]

>  <SUBJECT OF TEST>
HIV-1 infection of TZM-bl cells

>  <MEASURED QUANTITY>
Log10 of Rel to EFC (Feb2021)

>  <RECORDED RESULT>
-1.554

$$$$
>  <SUBSTANCE>
EIEIQINMWQ [VH8]

>  <SUBJECT OF TEST>
HIV-1 infection of TZM-bl cells

>  <MEASURED QUANTITY>
Log10 of Rel to EFC (Feb2021)

>  <RECORDED RESULT>
-0.881

$$$$

###

# Type: physicochemical
# CONDITION CONTEXT: Fig S10 panel E
Catalogue of ThT Cat. values

>  <SUBSTANCE>
MDQMDQMDQMDQMDQ

>  <ThT Cat.>
0 (ThT-inactive (N-Fold <2))

$$$$
>  <SUBSTANCE>
RGECKFKFQF

>  <ThT Cat.>
1 (ThT. Cat is 1, if Rel. ThT >2)

$$$$
>  <SUBSTANCE>
CKFKFQFNM

>  <ThT Cat.>
1 (ThT. Cat is 1, if Rel. ThT >2)

$$$$
>  <SUBSTANCE>
KIKIKIQI

>  <ThT Cat.>
1 (ThT. Cat is 1, if Rel. ThT >2)

$$$$
>  <SUBSTANCE>
CKIKIQI

>  <ThT Cat.>
1 (ThT. Cat is 1, if Rel. ThT >2)

$$$$
>  <SUBSTANCE>
QCKIKQIINMWQ [reference compound]

>  <ThT Cat.>
1 (ThT. Cat is 1, if Rel. ThT >2)

$$$$
>  <SUBSTANCE>
HHHHKIKIQINMYYYY

>  <ThT Cat.>
1 (ThT. Cat is 1, if Rel. ThT >2)

$$$$
>  <SUBSTANCE>
KFKFQF

>  <ThT Cat.>
0 (ThT-inactive (N-Fold <2))

$$$$
>  <SUBSTANCE>
CKIKQIINMWQ

>  <ThT Cat.>
1 (ThT. Cat is 1, if Rel. ThT >2)

$$$$
>  <SUBSTANCE>
RLRLTLC

>  <ThT Cat.>
0 (ThT-inactive (N-Fold <2))

$$$$
>  <SUBSTANCE>
CKIKIQINM

>  <ThT Cat.>
1 (ThT. Cat is 1, if Rel. ThT >2)

$$$$
>  <SUBSTANCE>
RGDCKFKFQF

>  <ThT Cat.>
1 (ThT. Cat is 1, if Rel. ThT >2)

$$$$
>  <SUBSTANCE>
RGDKIKIQIC

>  <ThT Cat.>
1 (ThT. Cat is 1, if Rel. ThT >2)

$$$$
>  <SUBSTANCE>
HGEHGEHGE

>  <ThT Cat.>
0 (ThT-inactive (N-Fold <2))

$$$$
>  <SUBSTANCE>
EIKIQINM

>  <ThT Cat.>
1 (ThT. Cat is 1, if Rel. ThT >2)

$$$$
>  <SUBSTANCE>
KIKIQI

>  <ThT Cat.>
0 (ThT-inactive (N-Fold <2))

$$$$
>  <SUBSTANCE>
QCKIKIQINMWQ

>  <ThT Cat.>
1 (ThT. Cat is 1, if Rel. ThT >2)

$$$$
>  <SUBSTANCE>
KNERIKNERI

>  <ThT Cat.>
0 (ThT-inactive (N-Fold <2))

$$$$
>  <SUBSTANCE>
CKIKIQIRGD

>  <ThT Cat.>
0 (ThT-inactive (N-Fold <2))

$$$$
>  <SUBSTANCE>
KAKAQA

>  <ThT Cat.>
0 (ThT-inactive (N-Fold <2))

$$$$
>  <SUBSTANCE>
KIKIQINMWQ

>  <ThT Cat.>
1 (ThT. Cat is 1, if Rel. ThT >2)

$$$$
>  <SUBSTANCE>
QCKIKIQINM

>  <ThT Cat.>
1 (ThT. Cat is 1, if Rel. ThT >2)

$$$$

###

# METHOD SUMMARY: Zeta-potential measurement
# Type: physicochemical
# CONDITION CONTEXT: zeta potential of peptide assemblies

>  <SUBSTANCE>
KFKFEFEF

>  <Zeta-Pot.>
-2.55

$$$$
>  <SUBSTANCE>
CKIKIQINMWQ

>  <Zeta-Pot.>
13.87

$$$$
>  <SUBSTANCE>
KAKAKAQA

>  <Zeta-Pot.>
-9.01

$$$$
>  <SUBSTANCE>
KIKQII

>  <Zeta-Pot.>
-12.67

$$$$
>  <SUBSTANCE>
KIKIQI

>  <Zeta-Pot.>
-5.63

$$$$
>  <SUBSTANCE>
HHHHKAKAKAKAYYYY

>  <Zeta-Pot.>
7.03

$$$$
>  <SUBSTANCE>
EIEIEIEI

>  <Zeta-Pot.>
-8.92

$$$$
>  <SUBSTANCE>
KLKQLL

>  <Zeta-Pot.>
-8.46

$$$$
>  <SUBSTANCE>
CKYKYQY

>  <Zeta-Pot.>
1.49

$$$$

###

# Assay type: physicochemical
# CONDITION CONTEXT: Fig S10 panel D

>  <SUBSTANCE>
KVKVQVVV

>  <Tht category (> 2 to blank = +)>
0 (ThT-inactive (N-Fold <2))

$$$$
>  <SUBSTANCE>
ILKNLSRSRKIKIQINMWQ

>  <Tht category (> 2 to blank = +)>
1 (ThT. Cat is 1, if Rel. ThT >2)

$$$$
>  <SUBSTANCE>
KFKFQFNMWQ

>  <Tht category (> 2 to blank = +)>
1 (ThT. Cat is 1, if Rel. ThT >2)

$$$$
>  <SUBSTANCE>
CEIEIQINM

>  <Tht category (> 2 to blank = +)>
1 (ThT. Cat is 1, if Rel. ThT >2)

$$$$
>  <SUBSTANCE>
KIKIQIAMWQ

>  <Tht category (> 2 to blank = +)>
1 (ThT. Cat is 1, if Rel. ThT >2)

$$$$
>  <SUBSTANCE>
CKFKQFF

>  <Tht category (> 2 to blank = +)>
0 (ThT-inactive (N-Fold <2))

$$$$
>  <SUBSTANCE>
KIEIQINM

>  <Tht category (> 2 to blank = +)>
0 (ThT-inactive (N-Fold <2))

$$$$
>  <SUBSTANCE>
CKAKAQA

>  <Tht category (> 2 to blank = +)>
0 (ThT-inactive (N-Fold <2))

$$$$
>  <SUBSTANCE>
HRRHFRHKITKKK

>  <Tht category (> 2 to blank = +)>
0 (ThT-inactive (N-Fold <2))

$$$$
>  <SUBSTANCE>
RPRGLLLGNLR

>  <Tht category (> 2 to blank = +)>
0 (ThT-inactive (N-Fold <2))

$$$$
